B1: Azoarcus group I ribozyme (parent)
chain: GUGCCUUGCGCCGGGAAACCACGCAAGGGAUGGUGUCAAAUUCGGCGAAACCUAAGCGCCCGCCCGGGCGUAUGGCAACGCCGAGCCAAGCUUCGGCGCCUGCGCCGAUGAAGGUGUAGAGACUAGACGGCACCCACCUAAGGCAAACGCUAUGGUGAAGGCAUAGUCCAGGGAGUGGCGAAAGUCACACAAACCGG

Variants of: B1
Assay: reverse-splicing fitness (ratio to wild type); higher = more active; in vitro selection; Mg2+ level not given
experimental_endpoint: reverse-splicing fitness
Give the value as a plain number.

C82A A111G A145U C150G: 0.0319
C82A A120U A145C C150G C169G U176G: 0.00211
A111U A120C A145C C150G: 0.0767
A120U A145C C150U U176G: 0.167
C82A A111U A120G A145G C169G: 0.0107

Need reverse-splicing fitness of C82A A111G A120U A145U C150U , thanks. 0.0232

Given the variant A120G A145C U176G , what is its reported reverse-splicing fitness? 0.0166

Can you share its reverse-splicing fitness? I mean this variant: C82U A111U A120C A145U C150G C169U 0.00819

Which reverse-splicing fitness is listed for C82G A120C C169U ? 0.0232

Entry A111C A120G A145U C150U C169U U176A : reported reverse-splicing fitness = ? 0.034

What value of reverse-splicing fitness has been reported for the following variant? A111U A120C A145U C150G C169U U176C 0.0166

Which reverse-splicing fitness value is on record for C82A A111G A120C A145U C150G U176A ? 0.00605

Any idea what reverse-splicing fitness was measured for C82G A120C A145U C150A C169A U176C ? 0.0107

Consider the variant C82U A111U A145C U176G and give its measured reverse-splicing fitness. 0.0247

Item under review: A111G A120G C150U C169A . Reported reverse-splicing fitness? 0.0914

I have this variant here, C82G A111G A120G A145C C150G C169G U176C , and I need its recorded reverse-splicing fitness. 0.00887

Param item = C82G A111U A120C A145U C169A ; retrieve measured reverse-splicing fitness. 0.00897

Can you share its reverse-splicing fitness? I mean this variant: C82G A145C U176A 0.378

Look at this variant and give its reported reverse-splicing fitness. C82A A111U A145U C150A C169G 0.00786

Where these numbers come from: the RNAGym collection of RNA variant scans (doi:10.1093/molbev/msab373)
